Exercise: for every item that follows, state its recorded ΔTm.
test system: AS1411-N6 (FRET-labeled) (DNA, G4) GGTTGGGGTGGTGGTGGTTGTGGTGGTGGTGGCCAACC; test: FRET melting; details: K+ 140 mM; 10 mM lithium cacodylate pH 7.2; ligand 4 eq., DNA 0.2 µM
Answer format: numeric, °C implied, no suffix.

[Q] Provide the documented ΔTm with AS1411-N6 (FRET-labeled) (DNA, G4) GGTTGGGGTGGTGGTGGTTGTGGTGGTGGTGGCCAACC as the system for C[n+]1cc(NC(=O)c2ccc3ccc4ccc(C(=O)Nc5cc6ccccc6[n+](C)c5)nc4c3n2)cc2ccccc21
[A] 22.89

[Q] Short answer please: ΔTm, AS1411-N6 (FRET-labeled) (DNA, G4) GGTTGGGGTGGTGGTGGTTGTGGTGGTGGTGGCCAACC, entry NCCOc1cc(C(=O)Nc2cc(OCCN)c3ccccc3n2)nc(C(=O)Nc2cc(OCCN)c3ccccc3n2)c1
[A] 2.35

[Q] Lab note: need ΔTm with AS1411-N6 (FRET-labeled) (DNA, G4) GGTTGGGGTGGTGGTGGTTGTGGTGGTGGTGGCCAACC for entry C[n+]1cc(NC(=O)c2cccc(C(=O)Nc3cc4ccccc4[n+](C)c3)n2)cc2ccccc21 , please look it up.
[A] 20.16

[Q] API: value(readout=ΔTm, system=AS1411-N6 (FRET-labeled) (DNA, G4) GGTTGGGGTGGTGGTGGTTGTGGTGGTGGTGGCCAACC) for record C[n+]1ccc(-c2c3nc(c(-c4cc[n+](C)cc4)c4ccc([nH]4)c(-c4cc[n+](C)cc4)c4nc(c(-c5cc[n+](C)cc5)c5ccc2[nH]5)C=C4)C=C3)cc1
[A] 28.94

[Q] Notebook entry, AS1411-N6 (FRET-labeled) (DNA, G4) GGTTGGGGTGGTGGTGGTTGTGGTGGTGGTGGCCAACC assay: ΔTm of CN(C)c1ccc(Nc2c3ccc(NC(=O)CCN4CCCC4)cc3nc3cc(NC(=O)CCN4CCCC4)ccc23)cc1 = ?
[A] 3.73
